This collection of values is drawn from ChEMBL document CHEMBL3988442.

System: Wolbachia pipientis
Experiment: Anti-Wolbachia Cell-Based Screen
Format: functional
Set-up: scale not given: in the data most compounds retested in dose-response had high values
Recorded conditions: 5 µM
Hit rate of the full screen: of about 48,000 compounds, about 13,000 (27%) showed an effect of 50% or more. The list shows a part of the results.
Measurement name: Percent Effect (%)
Give bare numbers, in %.

Solved entries:
CNS(=O)(=O)CCCN1CCCC1c1cc(C)on1 (stereo unspecified) ... -6.242
CN(C)CCOCC1CN(C(=O)c2ccnnc2)Cc2ccnn2C1.O=C(O)C(F)(F)F.O=C(O)C(F)(F)F (stereo unspecified) ... 5.316
CC(C)COCCC(=O)NS(=O)(=O)c1ccc(Cl)s1 ... 13.2
COc1ccc(C2(CNC(C)c3nnc(C)o3)CCCCC2)cc1 (stereo unspecified) ... -5.469
CCOc1cccc2c1OCC(C(=O)NS(=O)(=O)c1ccc(C)s1)=C2 ... -6.763

Please look at the items below and tell me Percent Effect for each one, in order.
1. O=C(Nc1cc(C(F)(F)F)ccc1Cl)c1ccc(N2CCCC2)nn1
2. COc1ccc(-c2noc(CCC(=O)N3CCOCC3(C)C)n2)cc1
3. Cc1ccc2c(-c3nc4c([nH]3)CCNC4C(=O)O)cccc2n1 (stereo unspecified)
4. CCn1cc(CN(C)S(=O)(=O)N2CCCC2c2ccco2)cn1 (stereo unspecified)
5. CCOC(=O)N1C[C@H]2CC[C@@H]1CN(Cc1ccccc1)C2
6. CCC(=O)N(C)Cc1cccc(OC(C)C)c1

# output
13.93
3.097
0.6964
-4.974
-18.44
-5.096

====

Tested on: Wolbachia pipientis
Experiment: Anti-Wolbachia Cell-Based Screen
Format: functional
Set-up: scale not given: in the data most compounds retested in dose-response had high values
Recorded conditions: 5 µM
Among all 48,000 compounds or so, about 13,000 (27%) showed an effect of 50% or more. The list shows a part of the results.
Kindly supply the reported Percent Effect values for the records listed here.
Numbers only, in %.

Solved entries:
Cc1ccc(CC(NC(=O)CN(C)C2CC2)c2ccccn2)cc1 (configuration not stated) ... -26.42
CN(CC(=O)NC(Cc1ccsc1)c1cccnc1)Cc1ccccn1.Cl (configuration not stated) ... 89.62
Cc1csc(C(Cc2ccsc2)NC(=O)CN(C)Cc2ccccn2)n1.Cl (configuration not stated) ... 143
NC(=O)C(Nc1cccc(CO)c1)c1ccc(Br)cc1 (configuration not stated) ... -1.327
CN(CC(=O)N1CC(C)(C)[C@](O)(C2CC2)C1)Cc1cccnc1 ... -2.465
Cc1cc(C)n(CC(=O)NC(Cc2ccsc2)c2ccccn2)c(=O)n1.Cl (configuration not stated) ... -15.12
Cc1cc(=O)n(C)cc1NC(=O)Cc1cccc(Cl)c1 ... 5.962
CC(=O)c1cccc(NC(=O)CN2CCCCC2C)c1 (configuration not stated) ... -9.973

Please look at the items below and tell me Percent Effect for each one, in order.
1. COc1cc2ccn(CCCO)c(=O)c2cc1F
2. Cc1csc(C(C#N)C(=O)NCc2cccnc2)n1 (configuration not stated)
3. CC(c1nncn1C)n1cc(-c2cc(CN3CCCC3)cs2)nn1 (configuration not stated)

# output
1. -13.96
2. -20.56
3. 2.3

# input Value lookup for Percent Effect; key = O=C(CCc1ccsc1)N(Cc1ccccn1)C1CC1
# output 0.03996

====

Tested on: Wolbachia pipientis
Experiment: Anti-Wolbachia Cell-Based Screen
Format: functional
Design: scale not given: in the data most compounds retested in dose-response had high values
Recorded conditions: 5 µM
The campaign covered roughly 48,000 compounds. About 13,000 (27%) showed an effect of 50% or more. The list shows a part of the results.
Kindly supply the reported Percent Effect values for the records listed here.
One number for each entry, in %.

O=C(O)C(F)(F)F.O=C(c1cc[nH]n1)N1CC[C@@H]2CN(Cc3ccccc3)S(=O)(=O)[C@@H]2CC1 ... -14

Please look at the items below and tell me Percent Effect for each one, in order.
1. CCc1ccc(C(=O)N2CCCC(c3noc(CC)n3)C2)o1 (stereo unspecified)
2. CCc1nc(C2CCCN(C(=O)c3ccncc3)C2)no1 (stereo unspecified)
3. CCc1nc(C2CCCN(C(=O)c3ccc(OC)cc3)C2)no1 (stereo unspecified)
4. CCC(Sc1ncc(CO)n1C)c1ccccc1 (stereo unspecified)

# output
3.526
123.6
87.64
5.427

Please look at the items below and tell me Percent Effect for each one, in order.
1. Cn1cccc1-c1cc(C(=O)NCCc2nnc(N)s2)[nH]n1
2. CCc1nc(C2CCCN(C(=O)c3ccc(F)cc3)C2)no1 (stereo unspecified)
3. Cc1cc(NCCc2nnc(N)s2)nc(-c2ccccc2)n1
4. O=C(C1CCCO1)N1CC[C@@H]2CN(Cc3ccccc3)S(=O)(=O)[C@@H]2CC1 (stereo partly specified)
5. COCCN1CCN(C(=O)c2ccc(C)cc2OC)[C@H]2CS(=O)(=O)C[C@H]21
6. O=C(NCCCOCC1CC1)Nc1cccnc1N1CCOCC1

# output
[-4.601, 103.7, 97.75, -10.05, 5.009, -4.484]

====

Tested on: Wolbachia pipientis
Experiment: Anti-Wolbachia Cell-Based Screen
Format: functional
Design: scale not given: in the data most compounds retested in dose-response had high values
Recorded conditions: 5 µM
Screen size: about 48,000 compounds; about 13,000 (27%) showed an effect of 50% or more. Some of the results follow.
Measurement name: Percent Effect (%)
Give bare numbers, in %.

COC(=O)CNC(=O)c1ccc(OC2CCN(S(C)(=O)=O)CC2)c(Cl)c1 ... -7.47
CC(=O)N1CCC2(C1)c1ccccc1S(=O)(=O)N2CCC(C)C (stereo not drawn) ... 83.1
CC(C)CCN1N=C(C(=O)N2CCCCCC2)S(=O)(=O)c2ccccc21 ... 20.76
CC(C1CCN(Cc2cnc(-c3cccs3)nc2)CC1)N(C)C (stereo not drawn) ... 1.758
COC(=O)CCN(CC1CCOC1)C1CC1 (stereo not drawn) ... -6.747

Please look at the items below and tell me Percent Effect for each one, in order.
1. Cc1[nH]c(=O)[nH]c(=O)c1CN1CCCC(CCc2ccc(F)c(F)c2)C1 (stereo not drawn)
2. Cc1cccc2[nH]c(C3CCN(C(=O)c4ccc[nH]4)CC3)nc12
3. O=C(O)C1(n2cccn2)CCN(c2nc(-c3ccccc3)no2)CC1
4. CCCc1[nH]n(C)c(=N)c1-c1ccc2c(c1)OCO2
5. Cc1noc(C)c1CN1CCN(Cc2nc(C3CC3)no2)CC1
6. CCNC(=O)N1CCC2(C1)c1ccccc1S(=O)(=O)N2CCC(C)C (stereo not drawn)
7. Cc1c(C(=O)NCCC(=O)N2CCOCC2)oc2c(C)cccc12

# output
[8.003, -3.208, -0.7442, -1.578, -14.96, -10.03, -0.1879]

Please look at the items below and tell me Percent Effect for each one, in order.
1. Cc1ccc(NC2CCN(C(=O)Cc3ccc(C#N)cc3)CC2)nn1
2. CC(C)CCN1CC2(CCN(C(=O)C3(C)CC3)CC2)OC1=O
3. COCCCN(Cc1cnc(-c2ccccn2)nc1)C1CCN(C)CC1
4. COc1ccc(CC(=O)N2CCC(Nc3ccc(C)nn3)CC2)cc1
5. CC(c1nc(C2CC2)no1)N1CCN(Cc2ccccc2F)CC1 (stereo not drawn)

# output
[-2.358, 1.386, 120.4, 95.7, 3.653]

Please look at the items below and tell me Percent Effect for each one, in order.
1. CC(C)CCN1C2(CCN(C(=O)C3(C)CC3)C2)c2ccccc2S1(=O)=O (stereo not drawn)
2. COCC(=O)N1CCC2(CC1)c1ccccc1[C@@H](N1CCSCC1)[C@@H]2O
3. Cc1nc(CN2CCN(C(C)c3nc(C4CC4)no3)CC2)no1 (stereo not drawn)
4. CSC(C)(C)CNC(=O)NCCC1CCN(C)CC1

# output
1. 92.1
2. 1.916
3. 103.1
4. 0.9558

Please look at the items below and tell me Percent Effect for each one, in order.
1. CCn1cncc1C1CC(=O)Nc2c1c(C)nn2-c1ccc(C)cc1 (stereo not drawn)
2. CC(C)n1cnnc1CN(C)Cc1cnc(-c2ccccn2)nc1

# output
[-3.451, 11.81]

====

Test system: Wolbachia pipientis
Experiment: Anti-Wolbachia Cell-Based Screen
Assay type: functional
Design: scale not given: in the data most compounds retested in dose-response had high values
Recorded conditions: 5 µM
Screen size: about 48,000 compounds; about 13,000 (27%) showed an effect of 50% or more. The list shows a part of the results.
Kindly supply the reported Percent Effect values for the records listed here.

Solved entries:
Cc1cc(C2CCC2)nc(N(C)Cc2ncccc2C)n1 ... 22.22%
CCn1cnnc1CNC(=O)NC(C)c1cccs1 (configuration not stated) ... 5.383%
O=C(NCCC1CCCCO1)c1coc(COc2ccc(F)cc2)n1 (configuration not stated) ... -18.68%
Cc1cc(Cc2ccccc2C)cc(C2CCCNC2)n1 (configuration not stated) ... 111.5%
CC(NC(=O)NCCNc1ccccn1)c1cccs1 (configuration not stated) ... 84.24%
CC(NC(=O)NCc1ccccn1)c1cccs1 (configuration not stated) ... 95.38%
Cc1ccc(-n2nnnc2C2(NCc3ccco3)CCCC2)cc1 ... 2.087%
Cc1nnc(SCCC(=O)N(C)Cc2ccc(F)cc2Cl)[nH]1 ... 5.698%

Please look at the items below and tell me Percent Effect for each one, in order.
1. CC(C)C(NC(=O)NCCNc1ccccn1)c1cccs1 (configuration not stated)
2. Cc1cnn(CC2CCCN2C(=O)c2sccc2C#N)c1 (configuration not stated)
3. COc1ccc(C(C)NC(=O)NCCNc2ccccn2)c(OC)c1 (configuration not stated)
4. O=C(NC1(c2nc(C3CC3)no2)CCCCC1)c1ccncc1

# output
["-3.383%", "-6.888%", "23.68%", "-8.803%"]
